- procedure summary: Solubility in water at 25 degC
- Format: physicochemical
- particulars: buffer
readout type: solubility (mg/mL)
Give the quantity in mg/mL, number only.

O=C1CCc2ccc(OP(=O)([O-])[O-])c(c2)Oc2ccc(cc2)/C=C\CO1.[Li+].[Li+] yielded solubility of 20

O=C1CCc2ccc(O)c(c2)Oc2ccc(cc2)/C=C\CO1 yielded solubility of 0.5

###

- procedure summary: Cytotoxicity against human lung cancer cells
- Type: functional
- particulars: Cancer cell lines
Friendly reminder: GI50 below 10 µg/mL is criterion met, at or above is criterion not met.

-- ask Problem: For the compound O=C1CCc2ccc(OP(=O)([O-])[O-])c(c2)Oc2ccc(cc2)/C=C\CO1.[Li+].[Li+] , is GI50 under 10 µg/mL?
-- reply criterion not met

-- ask Problem: For the compound COc1ccc2cc1Oc1ccc(cc1)/C=C\COC(=O)CC2 , is GI50 under 10 µg/mL?
-- reply criterion met

-- ask Problem: For the compound O=C1CCc2ccc(OP(=O)([O-])[O-])c(c2)Oc2ccc(cc2)/C=C\CO1.[Na+].[Na+] , is GI50 under 10 µg/mL?
-- reply criterion not met

-- ask Problem: For the compound O=C1CCc2ccc(O)c(c2)Oc2ccc(cc2)/C=C\CO1 , is GI50 under 10 µg/mL?
-- reply criterion met

-- ask Problem: For the compound COc1ccc(CCC(=O)OC/C=C\c2ccc(Br)cc2)cc1O , is GI50 under 10 µg/mL?
-- reply criterion not met

-- ask Problem: For the compound C1COCCN1.C1COCCN1.O=C1CCc2ccc(OP(=O)(O)O)c(c2)Oc2ccc(cc2)/C=C\CO1 , is GI50 under 10 µg/mL?
-- reply criterion not met

-- ask Problem: For the compound O=C1CCc2ccc(OP(=O)([O-])[O-])c(c2)Oc2ccc(cc2)/C=C\CO1.[K+].[K+] , is GI50 under 10 µg/mL?
-- reply criterion not met
